# system: ERK2 (Rattus norvegicus, UniProt P63086)
# Sequence (P63086 whole entry): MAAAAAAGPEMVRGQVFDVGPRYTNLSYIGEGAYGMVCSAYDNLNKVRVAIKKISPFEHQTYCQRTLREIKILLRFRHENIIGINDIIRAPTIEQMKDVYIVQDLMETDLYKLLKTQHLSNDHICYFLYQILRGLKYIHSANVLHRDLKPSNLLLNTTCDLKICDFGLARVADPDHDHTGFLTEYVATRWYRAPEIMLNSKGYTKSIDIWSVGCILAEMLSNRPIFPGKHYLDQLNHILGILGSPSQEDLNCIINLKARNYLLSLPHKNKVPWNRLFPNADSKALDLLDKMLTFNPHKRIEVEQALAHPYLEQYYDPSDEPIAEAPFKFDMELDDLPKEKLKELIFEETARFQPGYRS
# assayText: in vitro radioactive kinase assay, Ets-1 phosphorylation by ERK2
# Type: biochemical
# protocolConditions: read-out: ERK2 IC50; 100 μM ATP, 10 μM Ets-1
pIC50: −log10 of the molar value.
endpoint: pIC50

• Cn1c(=O)c2c(=O)c3c4c(oc3oc2c2ccccc21)C(=O)c1ccccc1C4=O [5a] = 3.97

###

# Test system: OVCAR-5
# assayText: cells
# Assay type: cell-based
# protocolConditions: OVCAR-5, 10^−5 M, 48 h
endpoint: Growth percent (G%)

* O=C1c2ccccc2C(=O)c2c1oc1c2c(=O)[nH]c2ccc(Cl)cc21 | 52.70
* O=C1c2ccccc2C(=O)c2c1oc1c2c(=O)[nH]c2ccccc21 | 102.37
* Cn1c(=O)c2c(=O)c3c4c(oc3oc2c2ccccc21)C(=O)c1ccccc1C4=O | 102.02
* Cn1c(=O)c2c3c(oc2c2ccccc21)C(=O)c1ccccc1C3=O | 119.92
* O=C1C(Cl)=C(c2c(O)c3c(=O)n(-c4ccccc4)c4ccccc4c3oc2=O)C(=O)c2ccccc21 | 88.70
* CCn1c(=O)c2c(=O)c3c4c(oc3oc2c2ccccc21)C(=O)c1ccccc1C4=O | 117.77

###

# system: ERK2 (Rattus norvegicus)
# assayText: in vitro radioactive kinase assay, Ets-1 phosphorylation by ERK2
# Format: biochemical
# protocolConditions: ERK2 IC50 at 100 μM ATP /10mM Ets-1, Table 4; 100 μM ATP /10mM Ets-1
pIC50: −log10 of the molar value.
Parameter threshold = 5. Response is rule met when pIC50 meets or exceeds it, else rule not met.

- Cc1ccc2[nH]c(=O)c3c4c(oc3c2c1)C(=O)c1ccccc1C4=O: rule not met
- Cn1c(=O)c2c3c(oc2c2ccccc21)C(=O)c1ccccc1C3=O: rule not met
- O=C1C(Cl)=C(c2c(O)c3c(=O)n(-c4ccccc4)c4ccccc4c3oc2=O)C(=O)c2ccccc21: rule met
- O=C1c2ccccc2C(=O)c2c1oc1c2c(=O)[nH]c2ccc(Cl)cc21: rule met
- O=C1c2ccccc2C(=O)c2c1oc1c2c(=O)[nH]c2ccc(Br)cc21: rule not met

###

# Tested on: SK-MEL-28
# assayText: cells
# Format: cell-based
# protocolConditions: SK-MEL-28, 10^−5 M, 48 h
endpoint: Growth percent (G%)

- O=C1C(Cl)=C(c2c(O)c3c(=O)n(-c4ccccc4)c4ccccc4c3oc2=O)C(=O)c2ccccc21 [compound 6]: 39.37%
- O=C1c2ccccc2C(=O)c2c1oc1c2c(=O)[nH]c2ccccc21 [3a]: 112.03%
- Cn1c(=O)c2c(=O)c3c4c(oc3oc2c2ccccc21)C(=O)c1ccccc1C4=O [5a]: 107.21%
- Cn1c(=O)c2c3c(oc2c2ccccc21)C(=O)c1ccccc1C3=O [3e]: 111.89%
- O=C1c2ccccc2C(=O)c2c1oc1c2c(=O)[nH]c2ccc(Cl)cc21 [3b]: −11.84%
- CCn1c(=O)c2c(=O)c3c4c(oc3oc2c2ccccc21)C(=O)c1ccccc1C4=O [5b]: 106.96%

###

# Tested on: HOP-62
# assayText: cells
# Type: cell-based
# protocolConditions: HOP-62, 10^−5 M, 48 h
endpoint: Growth percent (G%)

• O=C1C(Cl)=C(c2c(O)c3c(=O)n(-c4ccccc4)c4ccccc4c3oc2=O)C(=O)c2ccccc21 = 36.07%
• CCn1c(=O)c2c(=O)c3c4c(oc3oc2c2ccccc21)C(=O)c1ccccc1C4=O = 80.29%
• Cn1c(=O)c2c(=O)c3c4c(oc3oc2c2ccccc21)C(=O)c1ccccc1C4=O = 80.81%
• O=C1c2ccccc2C(=O)c2c1oc1c2c(=O)[nH]c2ccccc21 = 118.63%
• Cn1c(=O)c2c3c(oc2c2ccccc21)C(=O)c1ccccc1C3=O = 81.77%
• O=C1c2ccccc2C(=O)c2c1oc1c2c(=O)[nH]c2ccc(Cl)cc21 = −38.70%
